# assay-method-text: Bioavailability in Sprague-Dawley rat at 3 mg/kg, po
# Assay type: ADME, organism-based
# condition: in vivo
property: bioavailability (%)
Please respond with the number in % and leave the unit unwritten.

Consider the compound CCCCOCCOc1ccc(-c2ccc3c(c2)/C=C(/C(=O)Nc2ccc([S@@+]([O-])Cc4cncn4CCC)cc2)CCCN3CC(C)C)cc1.CS(=O)(=O)O [CENICRIVIROC MESYLATE] and give its recorded bioavailability.
10.2

###

# study-target: C-C chemokine receptor type 7 (Homo sapiens, UniProt P32248)
# Sequence (P32248 whole entry): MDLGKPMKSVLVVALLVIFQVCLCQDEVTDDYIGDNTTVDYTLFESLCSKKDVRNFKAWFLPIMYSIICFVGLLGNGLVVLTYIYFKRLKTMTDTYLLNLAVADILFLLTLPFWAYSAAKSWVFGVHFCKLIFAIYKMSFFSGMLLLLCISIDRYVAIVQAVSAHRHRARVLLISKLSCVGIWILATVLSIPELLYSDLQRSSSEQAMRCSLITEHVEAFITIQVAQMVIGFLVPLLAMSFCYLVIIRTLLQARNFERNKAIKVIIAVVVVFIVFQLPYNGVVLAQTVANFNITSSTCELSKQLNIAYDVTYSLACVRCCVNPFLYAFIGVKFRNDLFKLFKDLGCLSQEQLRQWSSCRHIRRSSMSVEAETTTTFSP
# assay-method-text: Displacement of [125I]MIP-3beta from CCR7 expressed in CHO cells
pIC50: −log10 of the molar value.
property: pIC50

Consider the molecule CCCCOCCOc1ccc(-c2ccc3c(c2)/C=C(/C(=O)Nc2ccc([S@@+]([O-])Cc4cncn4CCC)cc2)CCCN3CC(C)C)cc1.CS(=O)(=O)O [CENICRIVIROC MESYLATE] and give its recorded pIC50.
< 5.00
